Source listed as the supplement of paper PMC9170038.

- System: MS2 coat protein
- method.notes: apparent KD of MS2 coat protein; higher = weaker reporter binding
- condition.set: Eterna round: R107; input ligand: none
Entries and their apparent KD of MS2 coat protein
Give the quantity in µM, number only.

Example results:
AAAUAAAUACAUGAGGAUCACCCAUGUGAAGGAGCGGCCGUUAGGCCAGGUAGGUCGCGCAUGAAUAACUCCGUGCAUAAGCACA [MAT - Exclusion Arginine A - Mod of Eli - D18]
0.0111
ACAUGAGGAUCACCCAUGUAAUCAUCAGAAGGAGCGUGGAAUAACACAGGUAGGUCGCUGAUGUUAUAUUAAUCUUAUUCGUAAA [JR_ExcArginiA_Sub003]
0.0136

Next sequence, apparent KD of MS2 coat protein to be filled in.
Short answer for UUUACGGGAAACCGAACUAAACAAAGGGAAGGAGCGCCAAACAAGGCAGGUAGGUCGCCCACAUGAGGAUCACCCAUGUGUUGGG [Exclusion Arginine A GF 25] : apparent KD of MS2 coat protein was 0.0603

* * *

- System: MS2 coat protein
- method.notes: apparent KD of MS2 coat protein; designed switch direction (-1 OFF switch, 1 ON switch): -1; higher = weaker reporter binding
- condition.set: Eterna round: R95; input ligand: none
Decision: apparent KD of MS2 coat protein compared against 70 nM; not below it gives satisfied, below it gives not satisfied.

Use the examples below as a reference point.
AAUAAGCGAGGAUAUACAUGAGGAUCACCCAUGUGGACCGGGUGUUCAGCAAAUAAAAGUAGAAGGCGCAAAAG [Tibiater] (puzzle: Exclusion 3)
not satisfied
GGUUGGCGAGGAUAUACAUGAGGAUCACCCAUGUGAGAGAGAAAAGUGAGAACGAAAAGUAGAAGGCGCUGACG [salish99_ex3_r3_061] (puzzle: Exclusion 3)
satisfied
UUUUUCGAACAAGCUUCGAACAUGAGGAUCACCCAUGUAGGUAGAUUUGAGUAGGUUUGGAAGUAAGCUCGUCUUAU [JR_SV3TOV1_Sub081] (puzzle: Sensor v3, turn-off variant 1)
satisfied

Moving on to another sequence below.
Given ACGAGGUCAGGAUAUACAGAGAGAAGGAGUUGGUUGAGGUAACAUGAGGAUCACCCAUGUAGAAGGGACUGGGA [JR_Exclu2_Sub081] (puzzle: Exclusion 2) , state whether its apparent KD of MS2 coat protein is at least 70 nM.
not satisfied

* * *

Entries and their apparent KD of MS2 coat protein
- System: MS2 coat protein
- method.notes: apparent KD of MS2 coat protein; higher = weaker reporter binding
- condition.set: Eterna round: R107; input ligand: theophylline 20 uM
Give the quantity in µM, number only.

ACUUUGUCGGGUGAUACCAGCCUCGGCAAAUCUCGUGCCGAACAUGAGGAUCACCCAUGUGGCCCUUGGCAGCACAUGACAACUC [Cezara]
0.546

Short answer for GACAUGAGGAUAGAUACCAGCGACAUGAGGAUCACAUGAGGAUCACCCAUGUGUAGUAUACGCCCUUGGCAGCUAACAUGAGGAU [Same State Theophylline B 3] : apparent KD of MS2 coat protein was 0.129

Short answer for UUAUAAGUACCGGUCCUCAGAUCCUCAUGACGAGGACCGGUACGGCCGCCACUCGAAACAUGAGGAUCACCCAUGUAAUAAUAAU [Brourdmod05] : apparent KD of MS2 coat protein was 0.0293

Short answer for AACGUAUACAGAAGGAGCGUGAUUUAUUAUUCUUUAAGAUAUACAUGAGGAUCACCCAUGUCACAGGUAGGUCGCUGUAUUCGUA [JR_ExcArginiB_Sub025] : apparent KD of MS2 coat protein was 0.0423

Short answer for AUCCACAGCCGAAGGAGCGCAGUAGGAUGACAUGAGGAUCACCCAUGUGUGUGAUGUGGAUUGCAGGUAGGUCGCGGAGUGGGUU [Exclusion - Arginine B (Freestyle 8)] : apparent KD of MS2 coat protein was 0.0725

Short answer for UCUUUCUUUGUAGAUACCAGCGUGUUAUCUUUCUUUUGACAUGAGGAUCACCCAUGUAUAUGCCCUUGGCAGCUACAUAUUCUUU [#01 Same State - Theophylline B] : apparent KD of MS2 coat protein was 0.0236

Short answer for CGGCCCUCACCUGAGGAUCACCCGGGUGAUACCAGCCUGGAAACAGGCCCUUGGCAGCACCAGGUCAUCAAAGAUGACCAAGCCG [TheoAX 26 #OpenEnded #AlternativeMS2] : apparent KD of MS2 coat protein was 0.11

* * *

- System: K4 kissing-loop RNA reporter;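 note: bound reporter read as fluorescence of individual clusters on recovered sequencing chips by microscopy, with normalized cluster intensities fitted with a binding model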
- method.notes: apparent KD of K4 kissing-loop reporter; higher = weaker reporter binding
- condition.set: Eterna round: R107; input ligand: none
Decision: apparent KD of K4 kissing-loop reporter compared against 300 nM; not below it gives true, below it gives false.

Use the examples below as a reference point.
UCACAGUCCAAAGGAUAUUGAGUGCGCGUGCGAUUUAAGCUGAAGCCGUAGCUAGUGAUGUUAGCCCAAGAAGGUUGGUAGCCAG [theeternabot_exclusion_KL_FMN_B_16]
false
CACUCGGUAUCAGAUACCAGACUAUCGAUACCGAGUGUAUCGGGUAGUGAUGUUACCAUAGUCCCUUGGCAGCUGAUAUUGCAUA [Theo B SS t9b]
false
AGGUGAGAGUGAAGGAGCGAUCGCGCCAGUGAUGUUGGUGAGCAUGACGAAAGUCAUGCCGAUCAGGUAGGUCGCACUCUUACUC [Omei KL Arginine B SS B v3]
true
UAUAAUUCGGCGGCCGCCACUGACCAUAGCCUUCGAUGGCCAGUGAUGUUGGCCUCUGGCUCUAACAGGACCGGGCCGAAUUGUG [Reresoza]
false
CGUAGAUACUGAGGAUAUCAGAAAUCUGAUAUCAUCAGAGGUCUGAGUGAUGUUCAGAUGCGACUCUGAGAAGGCAGUAGGAGUC [FMN B Ex t2]
false

Given UGACUGGAUGGAAGGAGCGCUAAACUCCUAGUGAUGUUAGGGAAACGAGACAAAGUCUCGAGGCAGGUAGGUCGCCAUCUAGUCU [FiskerMod 15 - Jieux - Same State - Arginine B] , state whether its apparent KD of K4 kissing-loop reporter is at least 300 nM.
false

Given AGGAUCCACCAGUGAUGUUGGAAAUACAUCAAGGAUAUGACGAAAGUCAGAAGGUGGUAGACUGGACAAAGUCCAGUUGGAUCCA [KL-SSFMN-A18] , state whether its apparent KD of K4 kissing-loop reporter is at least 300 nM.
false

* * *

- Test system: MS2 coat protein
- method.notes: apparent KD of MS2 coat protein; designed switch direction (-1 OFF switch, 1 ON switch): -1; higher = weaker reporter binding
- condition.set: input ligand: microRNA oligo, concentration not stated
measured.endpoint: apparent KD of MS2 coat protein (nM)
Give the quantity in nM, number only.

Example results:
UUAAAUCAUGUAGGAUAUGCGUGGCGAAGCUAUGCAGAAGGACAUGAGGAUCACCCAUGUUCUUGCGUCUGCGUACAGAUGCGG [Exclusion NG 1] (Eterna round: R96, puzzle: Exclusion NG 1)
20
UAUUAACAAGUAAGAUCCCACAUGAGGAUCACCCAUGUGCUCGUCUUAUAAGGUACUGUGACGAAAGUCACGGUACC [Sensor 3, v1 - 87] (Eterna round: R96, puzzle: Sensor v3, turn-off variant 1)
367
AAAACUCACGUAGGAUAUCAUUCCUUAAGGUAGUGAGAAGGACGUGACUACAUGUCCUUGAACAUGAGGAUCACCCAUGUAGGC [Cerama] (Eterna round: R96, puzzle: Exclusion NG 1)
36.5
UCUCGACAUGAGGAUCACCCAUGUCAGGAUAUUGUGUUUGAGGUUUUUUACCUUUUGGCAAGAAGGGAUGUGUG [LRO-Excl1-21] (Eterna round: R96, puzzle: Exclusion 1)
19.7

Short answer for UUGAUUGGUGUAGGAUAUGUAUGAGGAUCACCCAUUAAUAAAUUUUAACCACGAGGAUCACCCGUGUAGAAGGACAUUGGUCAA [pwkr exNG2 2xF5 1xFMN.19] (Eterna round: R96, puzzle: Exclusion NG 2) : apparent KD of MS2 coat protein was 23.5

* * *

- Tested on: MS2 coat protein
- method.notes: apparent KD of MS2 coat protein; higher = weaker reporter binding
- condition.set: Eterna round: R107; input ligand: theophylline 2 mM
measured.endpoint: apparent KD of MS2 coat protein (nM)
Give the quantity in nM, number only.

Example results:
UGGACGCAACGAGCACGAGGUCGGCAGCUACGAGGACCGGUACGGCCGCCACUCGAGUUACGACAUGAGGAUCACCCAUGUAAGG [theeternabot_exclusion_MS2_Trp_A_45]
51.8
AAAUAAAUACAUGAGGAUCACCCAUGUGAAGGAGCGGCCGUUAGGCCAGGUAGGUCGCGCAUGAAUAACUCCGUGCAUAAGCACA [MAT - Exclusion Arginine A - Mod of Eli - D18]
12.2
GACAUGAGGAUCACCCAUGUACCGCGAGAAGGAGCGCGGAUAAACGCAGGUAGGUCGCUCGUGGGCUUAUAUUCAAUUGUAAGCU [Usence]
44.6

Next sequence, apparent KD of MS2 coat protein to be filled in.
Short answer for ACAUGAGGAUCACCCAUGUUUGAUGUUCCUCGAGGACCGGUACGGCCGCCACUCGAACGAGUGGCGCGCGAGCGCGCGCUCGCGC [aRa] : apparent KD of MS2 coat protein was 14.8
